- test.description: cells
- Assay type: functional
- condition: Homo sapiens, Endothelial progenitor cell; time 48 hrs
Each entry below carries its recorded GI50.
Field format: number, assumed nM, no unit text.

{"structure": "O=C(Nc1ccc(Nc2ncc(C(=O)NO)cn2)cc1)Nc1ccc(Cl)c(C(F)(F)F)c1", "GI50 [nM]": 5800}
{"structure": "O=C(/C=C/c1ccc(CN2CCc3cc(NC(=O)Nc4ccc(Cl)c(C(F)(F)F)c4)ccc32)cc1)NO", "GI50 [nM]": 1200}
{"structure": "O=C(Nc1ccc(NCc2ccc(C(=O)NO)cc2)cc1)Nc1ccc(Cl)c(C(F)(F)F)c1", "GI50 [nM]": 2800}
{"structure": "O=C(CCCCCCC(=O)Nc1ccc(NC(=O)Nc2ccc(Cl)c(C(F)(F)F)c2)cc1)NO", "GI50 [nM]": 4500}
{"structure": "O=C(Nc1ccc2c(c1)CCN2c1ccc(C(=O)NO)cc1)Nc1ccc(Cl)c(C(F)(F)F)c1", "GI50 [nM]": 2000}

q: Name the recorded GI50 for O=C(Nc1ccc2c(c1)CCCN2c1ccc(C(=O)NO)cc1)Nc1ccc(Cl)c(C(F)(F)F)c1 .
a: 1000

q: Record: CNC(=O)c1cc(Oc2ccc(NC(=O)Nc3ccc(Cl)c(C(F)(F)F)c3)cc2)ccn1
a: 5000

q: One more compound: O=C(/C=C/c1ccc(NC(=O)Nc2ccc(Cl)c(C(F)(F)F)c2)cc1)NO
a: 1000

====

Known pIC50 of a selection of compounds
- System: PC-3
- test.description: cells
- Type: functional, cell-based
- condition: Homo sapiens, PC-3, 48 h
// pIC50 here means minus log10 of the molar concentration (mol/L)

Examples with their reported pIC50 follow.
{"compound": "CNC(=O)c1cc(Oc2ccc(NC(=O)Nc3ccc(Cl)c(C(F)(F)F)c3)cc2)ccn1 [SORAFENIB]", "reported.measurement": 5.20}
{"compound": "O=C(Nc1ccc(NCc2ccc(C(=O)NO)cc2)cc1)Nc1ccc(Cl)c(C(F)(F)F)c1", "reported.measurement": 5.42}
{"compound": "O=C(/C=C/c1ccc(NC(=O)Nc2ccc(Cl)c(C(F)(F)F)c2)cc1)NO", "reported.measurement": 5.72}
{"compound": "O=C(Nc1ccc2c(c1)CCN2c1ccc(C(=O)NO)cc1)Nc1ccc(Cl)c(C(F)(F)F)c1", "reported.measurement": 5.42}
{"compound": "O=C(Nc1ccc(C(=O)NO)cc1)Nc1ccc(Cl)c(C(F)(F)F)c1", "reported.measurement": 5.51}

q: Give pIC50 (PC-3) of the following compound: O=C(Nc1ccc2c(c1)CCCN2Cc1ccc(C(=O)NO)cc1)Nc1ccc(Cl)c(C(F)(F)F)c1
a: 5.49

====

- target.or.test.system: Histone deacetylase 8 (Homo sapiens)
- Sequence (Q9BY41 whole entry, the tested form may be a part): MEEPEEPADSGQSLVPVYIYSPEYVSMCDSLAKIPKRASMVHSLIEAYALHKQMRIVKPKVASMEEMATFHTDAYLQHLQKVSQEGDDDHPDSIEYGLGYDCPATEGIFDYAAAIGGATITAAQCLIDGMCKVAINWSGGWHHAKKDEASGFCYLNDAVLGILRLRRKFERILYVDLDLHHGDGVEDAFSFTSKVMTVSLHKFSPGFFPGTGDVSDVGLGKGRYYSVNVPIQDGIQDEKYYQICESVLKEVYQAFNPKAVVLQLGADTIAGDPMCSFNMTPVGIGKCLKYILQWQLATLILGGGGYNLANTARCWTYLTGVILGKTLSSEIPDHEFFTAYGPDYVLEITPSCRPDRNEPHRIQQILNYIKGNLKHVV
- test.description: Inhibition of recombinant C-terminal His-fusion tagged/N-terminal Strep2 tagged human HDAC8 (1 to 377 residues) expressed in insect cells using RHK-K(Ac)-K(Ac)-AMC as substrate measured after 60 mins by fluorescence plate reader assay
attribute.measured: pIC50
The read-out pIC50 is expressed as -log10 of concentration in moles per litre.

{"structure": "O=C(/C=C/c1ccc(NC(=O)Nc2ccc(Cl)c(C(F)(F)F)c2)cc1)NO", "pIC50": 5.70}

q: Return reported pIC50; argument: O=C(Nc1ccc2c(c1)N(Cc1ccc(C(=O)NO)cc1)CC2)Nc1ccc(Cl)c(C(F)(F)F)c1
a: 5.77

====

Form: system (Vascular endothelial growth factor receptor 2 (Homo sapiens, UniProt P35968)), quantity (pIC50), values below.
Scale explanation: pIC50 corresponds to minus log10 of a concentration expressed in moles per litre.

{"structure": "O=C(Nc1ccc2c(c1)CCCN2c1ccc(C(=O)NO)cc1)Nc1ccc(Cl)c(C(F)(F)F)c1", "target.or.test.system": "Vascular endothelial growth factor receptor 2 (Homo sapiens, UniProt P35968)", "pIC50": 4.88}

Attention now shifts to the item below.
q: Requested field: pIC50. Item: O=C(/C=C/c1ccc(NC(=O)Nc2ccc(Cl)c(C(F)(F)F)c2)cc1)NO
a: 4.88

====

- target.or.test.system: Histone deacetylase 1 (Homo sapiens, UniProt Q13547)
- Sequence (Q13547 whole entry): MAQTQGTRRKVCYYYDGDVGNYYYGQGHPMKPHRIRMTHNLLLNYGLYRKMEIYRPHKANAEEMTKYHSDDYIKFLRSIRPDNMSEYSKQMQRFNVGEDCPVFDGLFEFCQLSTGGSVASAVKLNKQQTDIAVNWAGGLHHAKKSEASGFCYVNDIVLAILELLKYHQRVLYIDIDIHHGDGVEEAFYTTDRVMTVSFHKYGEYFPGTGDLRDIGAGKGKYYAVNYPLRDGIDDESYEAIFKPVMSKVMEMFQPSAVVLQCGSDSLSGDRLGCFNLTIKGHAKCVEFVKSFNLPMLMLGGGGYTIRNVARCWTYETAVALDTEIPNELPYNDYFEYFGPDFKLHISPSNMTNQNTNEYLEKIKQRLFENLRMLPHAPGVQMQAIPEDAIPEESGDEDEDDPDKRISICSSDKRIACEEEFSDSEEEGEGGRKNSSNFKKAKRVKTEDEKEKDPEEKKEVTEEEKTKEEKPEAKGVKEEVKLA
- test.description: Inhibition of full length recombinant C-terminal FLAG/His-tagged human HDAC1 expressed in baculovirus infected Sf21 insect cells using RHK-K(Ac)-AMC as substrate measured after 60 mins by fluorescence plate reader assay
attribute.measured: pIC50
Reminder that pIC50 means the negative base-10 logarithm of the concentration expressed in mol/L.

q: Item O=C(/C=C/c1ccc(NC(=O)Nc2ccc(Cl)c(C(F)(F)F)c2)cc1)NO has what recorded pIC50?
a: 5.14

====

- target.or.test.system: Protein deacetylase HDAC6 (Homo sapiens, UniProt Q9UBN7)
- Sequence (Q9UBN7 whole entry): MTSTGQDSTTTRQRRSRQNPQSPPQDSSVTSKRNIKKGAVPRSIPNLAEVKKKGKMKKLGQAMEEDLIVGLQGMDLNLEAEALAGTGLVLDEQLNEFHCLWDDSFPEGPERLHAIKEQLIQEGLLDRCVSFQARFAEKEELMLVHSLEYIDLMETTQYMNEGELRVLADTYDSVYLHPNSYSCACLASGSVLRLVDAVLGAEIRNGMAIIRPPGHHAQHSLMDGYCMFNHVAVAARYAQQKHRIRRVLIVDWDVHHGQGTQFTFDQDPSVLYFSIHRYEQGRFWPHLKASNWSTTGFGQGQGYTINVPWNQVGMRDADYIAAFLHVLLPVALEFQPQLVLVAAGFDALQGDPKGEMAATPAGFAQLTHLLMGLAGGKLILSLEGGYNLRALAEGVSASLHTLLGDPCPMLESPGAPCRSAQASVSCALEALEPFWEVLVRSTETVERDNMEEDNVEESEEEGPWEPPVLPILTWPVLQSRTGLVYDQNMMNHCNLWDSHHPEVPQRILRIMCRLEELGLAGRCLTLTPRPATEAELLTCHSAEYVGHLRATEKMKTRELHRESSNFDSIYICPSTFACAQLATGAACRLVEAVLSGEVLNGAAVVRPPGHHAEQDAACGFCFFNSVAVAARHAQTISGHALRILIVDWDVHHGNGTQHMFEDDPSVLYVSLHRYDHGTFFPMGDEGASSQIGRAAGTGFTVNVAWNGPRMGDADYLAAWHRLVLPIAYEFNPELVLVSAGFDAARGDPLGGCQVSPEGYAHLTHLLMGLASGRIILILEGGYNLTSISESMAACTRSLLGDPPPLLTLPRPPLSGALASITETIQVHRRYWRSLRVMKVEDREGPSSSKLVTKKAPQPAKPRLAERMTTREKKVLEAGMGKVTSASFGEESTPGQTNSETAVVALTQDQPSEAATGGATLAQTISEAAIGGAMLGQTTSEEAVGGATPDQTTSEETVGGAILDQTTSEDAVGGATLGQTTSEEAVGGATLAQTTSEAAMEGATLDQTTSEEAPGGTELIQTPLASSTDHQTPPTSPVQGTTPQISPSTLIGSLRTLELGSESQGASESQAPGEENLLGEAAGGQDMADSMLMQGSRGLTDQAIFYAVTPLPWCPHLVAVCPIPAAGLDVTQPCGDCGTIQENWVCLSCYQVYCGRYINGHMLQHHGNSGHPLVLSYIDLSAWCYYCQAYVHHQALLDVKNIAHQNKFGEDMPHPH
- test.description: Inhibition of full length recombinant N-terminal GST-tagged human HDAC6 expressed in baculovirus infected Sf9 insect cells using RHK-K(Ac)-AMC as substrate measured after 90 mins by fluorescence plate reader assay
Listing: IC50 of selected compounds
Unit nM implied. Number only.

Sample answers from the record:
{"structure": "O=C(/C=C/c1ccc(CN2CCc3cc(NC(=O)Nc4ccc(Cl)c(C(F)(F)F)c4)ccc32)cc1)NO", "target.or.test.system": "Protein deacetylase HDAC6 (Homo sapiens, UniProt Q9UBN7)", "reported.measurement": 1140}
{"structure": "O=C(Nc1ccc2c(c1)CCN2c1ccc(C(=O)NO)cc1)Nc1ccc(Cl)c(C(F)(F)F)c1", "target.or.test.system": "Protein deacetylase HDAC6 (Homo sapiens, UniProt Q9UBN7)", "reported.measurement": 825}
{"structure": "O=C(Nc1ccc2c(c1)CCCN2c1ccc(C(=O)NO)cc1)Nc1ccc(Cl)c(C(F)(F)F)c1", "target.or.test.system": "Protein deacetylase HDAC6 (Homo sapiens, UniProt Q9UBN7)", "reported.measurement": 1200}
{"structure": "O=C(/C=C/c1ccc(NC(=O)Nc2ccc(Cl)c(C(F)(F)F)c2)cc1)NO", "target.or.test.system": "Protein deacetylase HDAC6 (Homo sapiens, UniProt Q9UBN7)", "reported.measurement": 166}

q: Which measured IC50 value corresponds to O=C(Nc1ccc2c(c1)N(Cc1ccc(C(=O)NO)cc1)CC2)Nc1ccc(Cl)c(C(F)(F)F)c1 ?
a: 251

====

- test.description: cells
- Assay type: functional
- condition: Homo sapiens, Endothelial progenitor cell; time 48 hrs
Listing of entries alongside the reported GI50.
Provide only the numeric value, understood in µM.

q: Fill in the blank: the reported GI50 of O=C(Nc1ccc2c(c1)CCCN2Cc1ccc(C(=O)NO)cc1)Nc1ccc(Cl)c(C(F)(F)F)c1 is ____.
a: 1.4

====

Entries and their IC50 values follow.
- Test system: PC-3
- test.description: cells
- Type: functional, cell-based
- condition: Homo sapiens, PC-3, 48 h
Give your result in µM as a bare value.

q: What does the record list as IC50 for O=C(Nc1ccc2c(c1)CCN2Cc1ccc(C(=O)NO)cc1)Nc1ccc(Cl)c(C(F)(F)F)c1 ?
a: 3.4

====

// GI50 lookup, one value per entry
- test.description: cells
- Format: functional
- condition: Homo sapiens, Endothelial progenitor cell; time 48 hrs
# number only, unit nM dropped from output

{"structure": "O=C(Nc1ccc2c(c1)CCN2Cc1ccc(C(=O)NO)cc1)Nc1ccc(Cl)c(C(F)(F)F)c1", "GI50 / nM": 1600}
{"structure": "O=C(Nc1ccc(C(=O)NO)cc1)Nc1ccc(Cl)c(C(F)(F)F)c1", "GI50 / nM": 1300}

Continue with the compound presented below.
q: # lookup: GI50 of O=C(Nc1ccc2c(c1)N(Cc1ccc(C(=O)NO)cc1)CC2)Nc1ccc(Cl)c(C(F)(F)F)c1
a: 1400

====

- Test system: PC-3
- test.description: cells
- Format: functional, cell-based
- condition: Homo sapiens, PC-3, 48 h
attribute.measured: pIC50
// pIC50: -log10(molar conc.)

q: For O=C(Nc1ccc2c(c1)CCCN2c1ccc(C(=O)NO)cc1)Nc1ccc(Cl)c(C(F)(F)F)c1 , what is its reported pIC50?
a: 5.52

q: # iterate: O=C(CCCCCCC(=O)Nc1ccc(NC(=O)Nc2ccc(Cl)c(C(F)(F)F)c2)cc1)NO
a: 5.34

q: Repeat with O=C(Nc1ccc2c(c1)N(Cc1ccc(C(=O)NO)cc1)CC2)Nc1ccc(Cl)c(C(F)(F)F)c1
a: 5.51

q: Also, O=C(/C=C/c1ccc(CN2CCc3cc(NC(=O)Nc4ccc(Cl)c(C(F)(F)F)c4)ccc32)cc1)NO please.
a: 5.64

====

- test.description: cells
- Assay type: functional
- condition: Homo sapiens, Endothelial progenitor cell; time 48 hrs
attribute.measured: GI50

Example cases with answers are listed next.
{"structure": "O=C(CCCCC(=O)Nc1ccc(NC(=O)Nc2ccc(Cl)c(C(F)(F)F)c2)cc1)NO", "GI50": "> 10 µM"}
{"structure": "O=C(CCCCCC(=O)Nc1ccc(NC(=O)Nc2ccc(Cl)c(C(F)(F)F)c2)cc1)NO", "GI50": "> 10 µM"}

q: Find the recorded GI50 belonging to O=C(CCCC(=O)Nc1ccc(NC(=O)Nc2ccc(Cl)c(C(F)(F)F)c2)cc1)NO and report it.
a: > 10 µM
